Molecular target: NLRP3 (Homo sapiens)
Sequence (Q96P20 whole entry): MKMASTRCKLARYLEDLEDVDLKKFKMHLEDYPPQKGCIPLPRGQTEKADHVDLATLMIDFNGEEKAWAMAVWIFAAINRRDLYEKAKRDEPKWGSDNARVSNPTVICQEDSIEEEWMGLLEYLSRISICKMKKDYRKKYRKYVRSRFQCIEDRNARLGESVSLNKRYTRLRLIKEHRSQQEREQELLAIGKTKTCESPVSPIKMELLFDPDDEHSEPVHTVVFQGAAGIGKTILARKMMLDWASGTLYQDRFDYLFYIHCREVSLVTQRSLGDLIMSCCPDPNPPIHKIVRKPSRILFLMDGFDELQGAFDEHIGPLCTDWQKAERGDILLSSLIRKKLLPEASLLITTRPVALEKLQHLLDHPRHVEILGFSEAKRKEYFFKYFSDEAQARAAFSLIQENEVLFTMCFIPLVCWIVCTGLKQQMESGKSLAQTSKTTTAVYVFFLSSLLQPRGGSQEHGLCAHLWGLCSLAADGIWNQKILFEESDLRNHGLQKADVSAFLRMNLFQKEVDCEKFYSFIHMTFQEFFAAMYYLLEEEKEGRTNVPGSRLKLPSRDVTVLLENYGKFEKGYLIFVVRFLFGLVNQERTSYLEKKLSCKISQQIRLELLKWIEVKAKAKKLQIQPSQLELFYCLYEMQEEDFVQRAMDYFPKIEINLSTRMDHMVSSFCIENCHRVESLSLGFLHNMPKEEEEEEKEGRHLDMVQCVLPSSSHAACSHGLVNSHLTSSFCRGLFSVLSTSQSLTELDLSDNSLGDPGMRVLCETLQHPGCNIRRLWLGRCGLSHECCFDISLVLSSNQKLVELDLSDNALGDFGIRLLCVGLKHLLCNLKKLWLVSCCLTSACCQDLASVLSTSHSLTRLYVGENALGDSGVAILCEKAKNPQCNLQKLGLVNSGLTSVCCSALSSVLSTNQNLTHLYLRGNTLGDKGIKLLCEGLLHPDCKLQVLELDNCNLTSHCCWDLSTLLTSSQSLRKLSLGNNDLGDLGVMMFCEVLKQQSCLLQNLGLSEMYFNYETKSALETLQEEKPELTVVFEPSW
Experiment: Measurement of IL-1β production in PMA-differentiated THP-1 cells (NLRP3 hIL1B)
Listing of entries alongside the reported log10 of EC50.
observed.property: log10 of EC50 (log10 of the value in nM)

compound	log10 of EC50
Nc1nc(NCCN2CCOCC2)c2ccc(-c3ccn[nH]3)cc2n1 [Example 157]	3.12
COCC(COC)Nc1nc(N)nc2cc(-c3ccn[nH]3)ccc12 [Example 79]	3.08
Cc1cc(-c2cc[nH]n2)cc2nc(N)nc(NCc3cc[nH]n3)c12 [Example 137]	2.23
C[C@H](O)CNc1nc(N)nc2cc(-c3ccn[nH]3)ccc12 [Example 36]	2.85
Nc1nc(NCc2ncccc2F)c2ccc(-c3ccn[nH]3)cc2n1 [Example 170]	2.30
Nc1nc(NCCCO)c2cc(F)c(-c3ccn[nH]3)cc2n1 [Example 24]	3.23
Cn1cncc1CNc1nc(N)nc2cc(-c3ccn[nH]3)ccc12 [Example 75]	3.74
Nc1nc(Nc2cn[nH]c2)c2ccc(-c3ccn[nH]3)cc2n1 [Example 112]	2.38
Nc1nc(N[C@H]2CCC[C@H](O)C2)c2c(F)cc(-c3cc[nH]n3)cc2n1 (racemic) [Example 17]	2.98

====

Molecular target: human TLR7 (Homo sapiens)
Sequence (Q9NYK1 27-1049): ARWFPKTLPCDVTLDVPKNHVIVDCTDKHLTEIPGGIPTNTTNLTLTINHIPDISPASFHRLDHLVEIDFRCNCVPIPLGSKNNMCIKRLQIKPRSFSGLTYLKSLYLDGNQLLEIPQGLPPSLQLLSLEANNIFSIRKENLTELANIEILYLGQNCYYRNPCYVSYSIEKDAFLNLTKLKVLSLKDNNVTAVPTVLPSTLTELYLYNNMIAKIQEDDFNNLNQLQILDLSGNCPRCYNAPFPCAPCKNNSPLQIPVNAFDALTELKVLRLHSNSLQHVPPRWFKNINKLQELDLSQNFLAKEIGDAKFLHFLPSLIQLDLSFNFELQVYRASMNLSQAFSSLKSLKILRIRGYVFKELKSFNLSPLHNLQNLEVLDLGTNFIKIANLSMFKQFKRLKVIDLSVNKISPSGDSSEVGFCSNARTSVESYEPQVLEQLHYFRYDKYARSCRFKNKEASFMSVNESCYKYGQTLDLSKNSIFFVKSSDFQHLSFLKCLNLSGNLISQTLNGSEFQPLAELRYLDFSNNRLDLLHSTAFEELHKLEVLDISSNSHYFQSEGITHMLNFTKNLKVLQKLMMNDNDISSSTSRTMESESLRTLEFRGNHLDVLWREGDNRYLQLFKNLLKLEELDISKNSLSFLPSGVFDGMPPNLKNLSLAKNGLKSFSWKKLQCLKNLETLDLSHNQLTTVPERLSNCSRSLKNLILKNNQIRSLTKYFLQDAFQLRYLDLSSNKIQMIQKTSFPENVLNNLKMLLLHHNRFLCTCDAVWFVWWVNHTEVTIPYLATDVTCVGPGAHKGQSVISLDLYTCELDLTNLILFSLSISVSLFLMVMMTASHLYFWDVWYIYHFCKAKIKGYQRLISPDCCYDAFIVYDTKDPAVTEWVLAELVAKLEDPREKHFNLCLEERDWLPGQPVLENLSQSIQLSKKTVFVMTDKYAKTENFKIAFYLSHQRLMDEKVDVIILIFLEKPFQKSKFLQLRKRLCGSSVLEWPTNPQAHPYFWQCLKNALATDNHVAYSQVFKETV
Assay: In vitro human TLR7 reporter assay (HEK-Blue, NF-kB/AP1-inducible SEAP)
Conditions: HEK-Blue TLR7 cells, SEAP reporter; read-out: TLR7 Agonist EC50 value
Text: […]
pEC50: −log10 of the molar value.
Listing of entries alongside the reported pEC50.

compound	pEC50
CCCCCNc1nc(N)nc2cc(-c3ccn[nH]3)ccc12 [Example 93]	4.70 to 6.00
CCCC(CCO)Nc1nc(N)nc2cc(-c3ccn[nH]3)ccc12 (single isomer, unassigned) [Example 97]	4.70 to 6.00
COCC(COC)Nc1nc(N)nc2cc(-c3ccn[nH]3)ccc12 [Example 79]	4.00 to 4.70
CCCCC(CCO)Nc1nc(N)nc2cc(-c3ccn[nH]3)ccc12 (racemic) [Example 99]	4.70 to 6.00
CCCCNc1nc(N)nc2cc(-c3ccn[nH]3)ccc12 [Example 92]	< 6.00
CCCCC(CCO)Nc1nc(N)nc2cc(-c3ccn[nH]3)ccc12 (single isomer, unassigned) [Example 100]	4.70 to 6.00
CCCC(CCO)Nc1nc(N)nc2cc(-c3ccn[nH]3)ccc12 (racemic) [Example 96]	4.70 to 6.00
CCCCCNc1nc(N)nc2cc(-c3cc[nH]n3)cc(F)c12 [Example 125]	4.70 to 6.00

====

Biological target: UniProt:Q96P20
Assay: Measurement of IL-1β production in PMA-differentiated THP-1 cells (NLRP3 hIL1B)
pEC50: −log10 of the molar value.
observed.property: pEC50

compound	observed.property	reported.value
CC(C)(C)CNc1nc(N)nc2cc(-c3ccn[nH]3)ccc12	pEC50	6.74
Cc1cc(-c2cc[nH]n2)cc2nc(N)nc(NCc3cncnc3)c12	pEC50	5.97
Nc1nc(N[C@H]2CCC[C@@H](O)C2)c2ccc(-c3ccn[nH]3)cc2n1 (single isomer, unassigned) [Example 179]	pEC50	6.57
Nc1nc(NCc2cccc3[nH]ncc23)c2ccc(-c3ccn[nH]3)cc2n1	pEC50	6.36
Nc1nc(Nc2ccon2)c2ccc(-c3ccn[nH]3)cc2n1	pEC50	5.65

====

Listing of entries alongside the reported pEC50.
Molecular target: NLRP3 (Homo sapiens)
Test: Measurement of IL-1β production in PMA-differentiated THP-1 cells (NLRP3 hIL1B)
pEC50: −log10 of the molar value.

compound	pEC50
Nc1nc(NCC2CCC(=O)N2)c2ccc(-c3ccn[nH]3)cc2n1 (single isomer, unassigned) [Example 5]	4.88
Nc1nc(NCC2CCC(=O)N2)c2ccc(-c3ccn[nH]3)cc2n1 (single isomer, unassigned) [Example 6]	5.68
CNc1nc(N)nc2cc(-c3ccn[nH]3)ccc12 [Example 84]	6.55
N#CCCNc1nc(N)nc2cc(-c3ccn[nH]3)ccc12 [Example 58]	6.15
C[C@]1(O)C[C@@H](Nc2nc(N)nc3cc(-c4ccn[nH]4)ccc23)C1 [Example 191]	6.34
Nc1nc(NC2CCC2)c2ccc(-c3ccn[nH]3)cc2n1 [Example 177]	6.80
Nc1nc(Nc2cc[nH]n2)c2ccc(-c3ccn[nH]3)cc2n1 [Example 2]	6.66
CCCCC(CCO)Nc1nc(N)nc2cc(-c3ccn[nH]3)ccc12 (single isomer, unassigned) [Example 100]	6.35
Nc1nc(N[C@@H]2C[C@H]2c2cccnc2)c2ccc(-c3ccn[nH]3)cc2n1 (single isomer, unassigned) [Example 163]	6.19
Cn1ncnc1COc1nc(N)nc2cc(-c3ccn[nH]3)ccc12 [Example 7]	5.35
Nc1nc(NCC2(O)CCOCC2)c2ccc(-c3ccn[nH]3)cc2n1 [Example 37]	6.06
C[C@]1(O)CC[C@@H](Nc2nc(N)nc3cc(-c4ccn[nH]4)ccc23)CC1 [Example 90]	6.08
Nc1nc(NCc2cn[nH]c2)c2ccc(-c3ccn[nH]3)cc2n1 [Example 147]	6.59
Nc1nc(NCc2ncc[nH]2)c2ccc(-c3ccn[nH]3)cc2n1 [Example 39]	5.88
Nc1nc(NC[C@@H]2CCCC[C@@H]2O)c2ccc(-c3ccn[nH]3)cc2n1 (racemic) [Example 77]	6.19
Nc1nc(N[C@H]2C[C@H](O)C[C@@H]2O)c2ccc(-c3cc[nH]n3)cc2n1 (racemic) [Example 118]	6.01
CC(O)(CO)CNc1nc(N)nc2cc(-c3ccn[nH]3)ccc12 (racemic) [Example 11]	5.94

====

Molecular target: NLRP3 (Homo sapiens)
Experiment: Measurement of IL-1β production in PMA-differentiated THP-1 cells (NLRP3 hIL1B)
Class (required): determined from EC50; valid ranges are low class: < 400 nM; middle class: ≥ 400 nM and < 2000 nM; high class: ≥ 2000 nM

molecule	cat
CN(C)CC(O)CNc1nc(N)nc2cc(-c3ccn[nH]3)ccc12 (stereo not drawn) [Example 40]	high class
Nc1nc(N[C@H]2CCCC[C@H]2O)c2ccc(-c3ccn[nH]3)cc2n1 [Example 67]	high class
COc1cc(-c2cc[nH]n2)cc2nc(N)nc(NCCO)c12 [Example 131]	high class
Nc1nc(NCCCCO)c2ccc(-c3ccn[nH]3)cc2n1 [Example 85]	low class
Cn1ccnc1C(O)CNc1nc(N)nc2cc(-c3ccn[nH]3)ccc12 (single isomer, unassigned) [Example 149]	high class
Nc1nc(N[C@@H]2CCOC2)c2ccc(-c3cc[nH]n3)cc2n1 [Example 121]	middle class
Nc1nc(NCc2ccno2)c2ccc(-c3ccn[nH]3)cc2n1 [Example 71]	middle class
CC(C)(O)C(O)CNc1nc(N)nc2cc(-c3ccn[nH]3)ccc12 (single isomer, unassigned) [Example 9]	middle class
CCOCCNc1nc(N)nc2cc(-c3ccn[nH]3)ccc12 [Example 103]	low class
Nc1nc(N2CCCOCC2)c2ccc(-c3cc[nH]n3)cc2n1 [Example 120]	middle class
Nc1nc(NCC2CCC(=O)N2)c2ccc(-c3ccn[nH]3)cc2n1 (stereo not drawn) [Example 43]	middle class
Nc1nc(NCCc2cccnc2)c2ccc(-c3ccn[nH]3)cc2n1 [Example 153]	middle class
Nc1nc(NCCO)c2ccc(-c3ccn[nH]3)cc2n1 [Example 45]	middle class
Nc1nc(N[C@@H]2CCCC[C@@H]2O)c2ccc(-c3ccn[nH]3)cc2n1 [Example 68]	middle class
Nc1nc(N[C@@H]2CC[C@@H](O)C2)c2ccc(-c3ccn[nH]3)cc2n1 [Example 46]	low class
Nc1nc(NCC(F)(F)c2ccccn2)c2ccc(-c3ccn[nH]3)cc2n1 [Example 26]	low class
